Record set of pIC50 for target or system Enoyl-[acyl-carrier-protein] reductase [NADH] (Mycobacterium tuberculosis, UniProt P9WGR1).
Numbers only, as −log10 of the molar value.

Record request: pIC50 value, item O=C(Nc1cc(Cl)cc(Cl)c1)C1CC(=O)N(C2CCCCC2)C1 (stereo in doubt; d11b)
6.70

Do the same for CN(Cc1c2ccccc2cc2ccccc12)C(=O)C1CC(=O)N(C2CCCCCC2)C1 (configuration not stated) please
6.49

Input O=C(Nc1cccc(-c2ccccc2)c1)C1CC(=O)N(C2CC3CCC2C3)C1 (configuration not stated)
6.34

How about O=C(Nc1cccc(-c2ccccc2)c1)C1CC(=O)N(C2CCCCC2)C1 (stereo in doubt; p24b) ?
6.59

// query: Cc1ccc(Cl)cc1NC(=O)C1CC(=O)N(C2CCCCC2)C1 (configuration not stated)
6.01

CN(Cc1c2ccccc2cc2ccccc12)C(=O)C1CC(=O)N(C2CCCCC2)C1 (configuration not stated) ?
6.12

Answer for every listed entry: what is its pIC50? The entries follow.
1. O=C(Nc1cccc(Br)c1)C1CC(=O)N(c2ccccc2)C1 (configuration not stated)
2. O=C(Nc1cc(Br)cc(C(F)(F)F)c1)C1CC(=O)N(C2CCCCC2)C1 (configuration not stated)
3. CN(Cc1c2ccccc2cc2ccccc12)C(=O)C1CC(=O)N(C2CCCCCCC2)C1 (configuration not stated)
4. O=C(Nc1cccc(Cc2ccccc2)c1)C1CC(=O)N(C2CCCCC2)C1 (configuration not stated)
5. O=C(Nc1cc(Cl)cc(Cl)c1)C1CC(=O)N(C2CCCCC2)C1 (stereo in doubt; d11)

[4.87, 6.07, 6.21, 6.39, 6.41]
